Task for the reader: assign each of the following compounds its reported inhibition.
assayedTarget: SARS-CoV-2 Main Protease (SARS-CoV-2)
settings: 20.0 µM
Report only the number, with the unit % understood.

Challenge: Record request: inhibition value, item O=S(=O)(Cc1ccccc1F)c1oc(-c2ccc(F)cc2)nc1S(=O)(=O)c1ccccc1
Response given: 49

Challenge: Record request: inhibition value, item COc1ccc(S(=O)(=O)N2CCN(C(=O)c3cc(=O)[nH]c4cc(F)ccc34)CC2)cc1
Response given: 5.98

Challenge: Record request: inhibition value, item C=CC(=O)N(c1ccc(SC)cc1)C(C(=O)Nc1c(C)cccc1CC)c1cccnc1 (stereo not given)
Response given: 11.1

Challenge: Record request: inhibition value, item O=C1C(=O)N(Cc2ccc(Br)cc2)c2ccccc21
Response given: -3.27

Challenge: Record request: inhibition value, item O=C(Nc1ccccc1OC1CCN(Cc2ccccc2)CC1)C1CCN(C(=O)CCl)CC1
Response given: 6.3
